meta.source: ChEMBL document CHEMBL4296182

- Tested on: Candida albicans
- EXPERIMENTAL_SETUP: 20 µM
- Description: Antifungal activity against Candida albicans ATCC 90028 (CO-ADD:FG_001); MIC in YNB media using NBS plates, by OD630
Results with a measured potency or affinity are listed apart.
QUANTITY_MEASURED: Inhibition (%)
One number for each entry, in %.

Below, each entry is followed by its recorded Inhibition result.
{"columns": ["COMPOUND", "UNIT_LABEL", "Inhibition"],
 "data": [
  ["C=CCNC(S)=Nc1c(N)n(C)c(=O)n(C)c1=O", "%", 8.36],
  ["Cc1c(Cl)cccc1NC(=O)CC1Sc2ccccc2NC1=O (stereo unspecified)", "%", 8.03],
  ["Nc1ccc(C(=O)Nc2ccc(Nc3ccncc3)cc2)cc1", "%", 2.67],
  ["COc1ccc([N+](=O)[O-])cc1NS(=O)(=O)c1ccc(C)cc1", "%", 5.66]
]}

Each of the following entries comes with a recorded value; kindly state Inhibition for each.
1. OC(C#Cc1ccccc1)(c1ccccc1)c1ccccc1
2. COc1cc(C(O)c2nc3ccccc3s2)cc(OC)c1OC (stereo unspecified)
3. N#CCCCCN1CCCC1
4. Cc1n[nH]c2c([N+](=O)[O-])c(=O)[nH]c(=O)n12
5. N#Cc1cnn2ccn(C3OC(CO)C(O)C3O)c12 (stereo unspecified)
6. COc1ccc2c(=O)cc(-c3cccnc3)oc2c1OC
7. CC(C)(C)CC(C)(C)N1CN=C(S)NC1
8. Oc1ccc(/N=N/c2ccccc2)c(O)c1/N=N/c1ccccc1

1: 3.27; 2: 9.5; 3: -1.32; 4: 0.29; 5: 4.75; 6: 9.13; 7: 1.25; 8: 8.07

Each of the following entries comes with a recorded value; kindly state Inhibition for each.
1. CCC(C)NC(=O)c1cccc(C)c1 (stereo unspecified)
2. CCCN=C(S)Nc1ccccc1
3. NC(=S)NC(=O)c1ccccc1
4. Cc1ccc(Nc2nnc(S)s2)cc1F

1: 3.19; 2: 4.15; 3: 2.89; 4: 12.1

====

- System: Cryptococcus neoformans
- EXPERIMENTAL_SETUP: Concentration 20 uM; ASSAY_TEST Inhibition of Fungal Growth; detection method Resazurin; Absorption (OD600-OD570); plate type 384well; NBS; CORNING #3640
- Description: Antifungal activity against Cryptococcus neoformans H99 ATCC 208821 (CO-ADD:FG_002); MIC in YNB media using NBS plates, by Resazurin OD(600-570)
Entries with a potency or affinity are not part of this list.
QUANTITY_MEASURED: Inhibition (%)
Answers are plain numbers, in %.

Below, each entry is followed by its recorded Inhibition result.
{"columns": ["COMPOUND", "UNIT_LABEL", "Inhibition"],
 "data": [
  ["O=C1NC(=O)N2CCSC2(Cc2ccccc2)N1 (centres undefined)", "%", -2.7],
  ["O=C1c2ccccc2C(=O)C1c1ccccn1", "%", -6.9],
  ["CC(=O)OC1C=CCC2C(=O)c3cccc(O)c3C(O)C12 (centres undefined)", "%", -16.38],
  ["Cc1nc2ccccc2c(N)c1-c1cc(C)c2c(C)nc3ccccc3c2n1", "%", 18.77],
  ["CSc1ccc(NC(=O)Nc2ccccc2C(N)=O)cc1", "%", 3.99]
]}

Each of the following entries comes with a recorded value; kindly state Inhibition for each.
1. Cc1nnc(-n2cccc2)s1
2. CN(C)c1ccc(/C=C2/C=C(c3ccc4c(c3)CCCC4)OC2=O)cc1
3. O=C(Oc1cccnc1O)c1cccc(Cl)c1
4. O=C(O)c1ccc(OCCOc2ccccc2)cc1
5. Nc1ncnc2c1cnn2C1CCCCC1
6. CCCCCC(=O)C(=O)c1ccc(O)cc1O
7. CCOC(=O)/C(C#N)=C/c1cccc(C)c1
8. Nn1c(Cc2ccccc2)nnc1Cc1ccccc1

1. -10.77
2. 1.53
3. -17.52
4. -11.92
5. -3.99
6. -6.56
7. -0.16
8. -5.12

Each of the following entries comes with a recorded value; kindly state Inhibition for each.
1. OC(COc1ccc(Cl)cc1)CN1CCN(c2cccc(Cl)c2)CC1 (centres undefined)
2. c1ccc(-c2cc3ccccc3[nH]2)cc1
3. COC(=O)C1=C(C)NC(C)=C(C(=O)OC)C(N2C(=O)CCC2=O)C1 (centres undefined)
4. NS(=O)(=O)c1ccc(Cl)cc1[N+](=O)[O-]
5. Cc1cccc(N2CCN(CC(O)COc3ccc(Cl)cc3)CC2)c1 (centres undefined)
6. CN1C(=O)c2ccccc2Cc2c(NCc3ccccc3)ncnc21
7. CC12CCC(C(NC(=S)NN)C1=O)C2(C)C (centres undefined)

1. -14.11
2. -3.77
3. -2.75
4. 15.75
5. -12.55
6. -9.85
7. -9.53

Each of the following entries comes with a recorded value; kindly state Inhibition for each.
1. COC(=O)c1ccccc1NCCO
2. COc1cc(C(=O)c2cocc2C(=O)c2ccc3c(c2)OCO3)cc(OC)c1OC
3. Cc1ccccc1NC(=O)C(=O)Nc1ccccc1C
4. C#Cc1cccc(NC(=O)c2ccc(Cl)cc2Cl)c1
5. CC(=O)OCc1cc(-c2nc3ccccc3nc2O)nn1-c1ccc(Cl)cc1
6. CC(=O)NCC1(O)CCCC(C)C1 (centres undefined)
7. CCCNC(=O)Nc1ccc(C)cc1C
8. C[C@H](CCC(=O)O)[C@H]1CC[C@@]2(C)[C@@H]3C(=O)C[C@H]4C(C)(C)[C@@H](O)CC[C@]4(C)[C@H]3C(=O)C[C@]12C

1: -9.6; 2: 14.1; 3: 7.92; 4: -7.06; 5: 44.96; 6: -5.78; 7: -2.02; 8: -2.42

Each of the following entries comes with a recorded value; kindly state Inhibition for each.
1. CC(C)(C)CC(C)(C)n1nnnc1N
2. Nc1n[nH]c(Nc2ccccc2)n1
3. Cn1c(=O)c2c(nc(N3CCOCC3)n2C)n(C)c1=O
4. O=c1n(CC2CO2)c(=O)n(CC2CO2)c(=O)n1CC1CO1 (centres undefined)

[-5.24, -7.66, -9.23, -12.57]
